- System: SF-268 CNS
- ASSAY PROTOCOL: NCI tumour cell line growth inhibition, 48 h
METRIC: TGI

# annotated cases, reported TGI shown
MOLECULE	METRIC	ENDPOINT RESULT
CCOC(=O)/C=C\c1c(Cl)n(-c2ccccc2)c(=O)n(-c2ccccc2)c1=O	TGI	44.7 µM
O=C(O)CSc1ccc(N=C=S)cc1	TGI	> 100 µM
CC(=O)OC1Oc2ccccc2-c2oc(=O)c(-c3ccc(F)cc3)cc21 (stereo not given)	TGI	> 100 µM
CC(=O)OCC1(C)C(OC(C)=O)CCC2(C)C(CC(OC(C)=O)C3=CCOC3=O)C(O)(CO)CCC12 (stereo not given)	TGI	> 100 µM
O=[N+]([O-])c1ccc(-c2noc(-c3ccccc3)c2C2=NCCN2)cc1	TGI	> 100 µM
O=S(/C=C/C=C/S(=O)(=O)c1ccccc1)c1ccccc1 (stereo not given)	TGI	> 9.08 µM
NCCCN1CCN(c2ccccc2)CC1	TGI	> 100 µM
O=S(=O)(Nc1ccc(Cl)cc1)c1ccc(-c2cnc(C3CC3)o2)cc1	TGI	23 µM

Okay, here is my list. What is TGI for each of these?
1. Cn1cc(-c2ccc(-c3cn(C)c4ccc(Cl)cc34)[nH]2)c2cc(Cl)ccc21
2. [Cl-].[Nd+3].[O-]/N=C(\c1ccccc1)c1ccccn1.[O-]/N=C(\c1ccccc1)c1ccccn1.[O-]/N=C(\c1ccccc1)c1ccccn1
3. CN1CCN(CC(=O)N2c3ccccc3Sc3cc4ccccc4cc32)CC1
4. CCOC(=O)/C(=C\NCc1ccc2c(c1)OCO2)c1nc2ccccc2[nH]1
5. O=C1c2cc3ccccc3cc2C2(c3ccc(Cl)cc3)NCCN12 (stereo not given)
6. C/C(=N\NC(=O)c1ccncc1)c1cccc(F)c1
7. CN/N=C(\C)c1c(O)cc(C)oc1=O
8. CC(C)(C)c1cc(OCc2nnc3sc(-c4ccc(Cl)cc4)nn23)c(Cl)cc1OCc1nnc2sc(-c3ccc(Cl)cc3)nn12

## Output
4.09 µM
85.1 µM
25.6 µM
> 100 µM
> 100 µM
> 10 µM
> 100 µM
> 100 µM

Okay, here is my list. What is TGI for each of these?
1. Nn1c2c(c3ccccc3c1=O)C(=O)c1ccccc1-2
2. Cc1ccc(S(=O)(=O)N(CCN2C(=O)c3ccccc3C2=O)c2cc3c4c(c2)Oc2cc(N(CCN5C(=O)c6ccccc6C5=O)S(=O)(=O)c5ccc(C)cc5)cc5c2C4(C)c2c(cc(N(CCN4C(=O)c6ccccc6C4=O)S(=O)(=O)c4ccc(C)cc4)cc2O5)O3)cc1
3. CC(CC(=O)O)(CC(=O)O)c1ccccc1

## Output
> 50 µM
> 100 µM
> 100 µM

* * *

- Tested on: EKVX NSCLC
- ASSAY PROTOCOL: NCI tumour cell line growth inhibition, 48 h; in the data active = GI50 below about 0.43 µM; inactive = the rest
Valid outcomes are listed here; reply with one: 1 (yes) for active, 0 (no) for inactive

COMPOUND	SUBJECT OF TEST	ANSWER LABEL
O=C(Nc1cccc(Cl)c1)Nc1nccs1	EKVX NSCLC	0 (no)
CC(C)OC(=O)c1cc(NS(=O)(=O)c2ccc3ccccc3c2)cc(C(=O)OC(C)C)c1	EKVX NSCLC	0 (no)
CCC(=O)OC1CCC2C3CCC(=O)OC3C(C)(CCC(=O)O)CC12C (centres undefined)	EKVX NSCLC	0 (no)
CCCN(CCC)c1ccc(CO)c(Cl)c1	EKVX NSCLC	0 (no)
NCCN.O=C([O-])C(=O)[O-].O=C([O-])C(=O)[O-].[Co+3].[K+]	EKVX NSCLC	0 (no)

## Input Per the records of this test, what outcome belongs to O=c1cc(NCC(O)CN2CCOCC2)n(Cc2ccccc2)c(=O)n1Cc1ccccc1 (centres undefined) ?
## Output 0 (no)

## Input Per the records of this test, what outcome belongs to `C[n+]1c2ccccc2c(Nc2ccc(N3CCCCC3)cc2)c2[nH]c3ccccc3c21` ?
## Output 0 (no)

## Input Per the records of this test, what outcome belongs to `CC(=O)N1CCC(Nc2cc(C(=O)NC[C@H](O)CN3CCc4ccccc4C3)ncn2)CC1` ?
## Output 0 (no)

## Input Per the records of this test, what outcome belongs to `COc1ccc2nc3cccc([N+](=O)[O-])c3c(NCCNCCO)c2c1` ?
## Output 1 (yes)
